Tested On: neuropilin-1 (NRP1), analyte in SPR (UniProt O14786 22-644, limits assumed)
Experiment Notes: SPR, Carterra LSA, antibody coupled
Parameter koff: see the listing below.
The response must be a number in s⁻¹ with no trailing unit.

The cases that follow already have their koff on record.
Binder	Quantity Unit	koff
NRP1-204 (antibody, IgG2, V domains shown) VH: EVQLLESGGGLVQPGGSLRLSCAASGFTFSAFAMSWVRQAPGKGLEWVSGTSGSGGSTYYADSVKGRFTISRDNSKNTLYLQMNSLRAEDTAVYYCARHRAYSYGLDYWGQGTLVTVSS VL: DIQMTQSPSSLSASVGDRVTITCRARQSISTYLNWYQQKPGKAPKLLIYSASTLESGVPSRFSGSGSGTDFTLTISSLQPEDFATYYCQQSYRTPWTFGGGTKVEIK	s⁻¹	0.0897
NRP1-25 (VHH) VHH: EVQLVESGGGLVQPGGSLRLSCAASGRTSNIYAMGWFRQAPGKERELVAAIRWSGVETYYADSVKGRFTISADNSKNTAYLQMNSLKPEDTAVYYCAADRMYRPVGNQYDWGQGTLVTVSS	s⁻¹	0.00969
NRP1-115 (antibody, IgG2, V domains shown) VH: EVQLLESGGGLVQPGGSLRLSCAASGFTFGHYEMDWVRQAPGKGLEWVSSIDDRGRYTYYADSVKGRFTISRDNSKNTLYLQMNSLRAEDTAVYYCARSKIAFDYWGQGTLVTVSS VL: DIQMTQSPSSLSASVGDRVTITCRASQNIRSYLNWYQQKPGKAPKLLIYGRNKRPSGVPSRFSGSGSGTDFTLTISSLQPEDFATYYCQQSYENPLTFGQGTKVEIK	s⁻¹	0.00951
NRP1-4 (VHH) VHH: EVQLVESGGGLVQPGGSLRLSCAASGNIFINNAMGWFRQAPGKERELVAAITSSSGRRWYADSVKGRFTISADNSKNTAYLQMNSLKPEDTAVYYCAARRIVNVEGAYRDWGQGTLVTVSS	s⁻¹	0.047
NRP1-33 (VHH) VHH: EVQLVESGGGLVQPGGSLRLSCAASGRTFSSGTMGWFRQASGKEREFVARINSDGSTNYADSVKGRFTISADNSKNTAYLQMNSLKPEDTAVYYCAKWSSSWYGYYYYGMDVWGQGTLVTVSS	s⁻¹	0.0167

Exam item: Item NRP1-8 (VHH) VHH: EVQLVESGGGLVQPGGSLRLSCAASGFPLDDYAMGWFRQAPGKEREFVAAINWSGGSAVYADSVKGRFTISADNSKNTAYLQMNSLKPEDTAVYYCMRGGSYGDYGGYWGQGTLVTVSS has what recorded koff?
Marked response: 0.00283

Exam item: Same for NRP1-18 (VHH) VHH: EVQLVESGGGLVQPGGSLRLSCAASGFRFSSYGMGWFRQAPGKEREFVAFISGNPSRTYYADSVKGRFTISADNSKNTAYLQMNSLKPEDTAVYYCAARPYQKYNWASASYNWGQGTLVTVSS
Marked response: 0.00374

src = patent US20230265198A1
